Give measured IC50 for each item. Keep answers brief.
- System: HB4a erbB-2 cells
- assay-method-text: Cell proliferation assay, HB4a transformed by over-expression of c-erbB-2
- Type: cell-based, human
- condition-description: Homo sapiens, HB4a, 96 h; 4 days, methylene blue staining; read-out: Cell Proliferation HB4a erbB-2 IC50
Counter-ions that a name gives are not always drawn.
Numbers only, in nM.

Before answering, review these 4 worked examples.
- Cc1nn(Cc2ccccc2)c2ccc(Nc3ncnc4cnc(N(C)C)cc34)cc12 [Example 14]: 950
- Cc1nnc(-c2cc3c(Nc4ccc5c(cnn5Cc5ccccc5)c4)ncnc3cn2)o1 [Example 29, Hydrochloride]: 5200
- c1ccc(Cn2ncc3cc(Nc4ncnc5cnc(-n6ccnc6)cc45)ccc32)cc1 [Example 20]: 470
- CN(C)c1cc2c(Nc3ccc4c(cnn4Cc4ccccn4)c3)ncnc2cn1 [Example 12, Hydrochloride]: 170

Next compound, IC50 to be filled in.
Ask: I would be grateful if you could share the reported IC50 for c1ccc(Cn2ncc3cc(Nc4ncnc5cnc(N6CCCC6)cc45)ccc32)cc1 [Example 24] .
Result: 810

---

- target-or-test-system: EGFr isolated from solubilised A431 cell membranes (Homo sapiens)
- Construct: EGFr isolated from solubilised A431 cell membranes; endogenous in cells; host or cells: A431 cell membranes (solubilised)
- Sequence (P00533 25-1210): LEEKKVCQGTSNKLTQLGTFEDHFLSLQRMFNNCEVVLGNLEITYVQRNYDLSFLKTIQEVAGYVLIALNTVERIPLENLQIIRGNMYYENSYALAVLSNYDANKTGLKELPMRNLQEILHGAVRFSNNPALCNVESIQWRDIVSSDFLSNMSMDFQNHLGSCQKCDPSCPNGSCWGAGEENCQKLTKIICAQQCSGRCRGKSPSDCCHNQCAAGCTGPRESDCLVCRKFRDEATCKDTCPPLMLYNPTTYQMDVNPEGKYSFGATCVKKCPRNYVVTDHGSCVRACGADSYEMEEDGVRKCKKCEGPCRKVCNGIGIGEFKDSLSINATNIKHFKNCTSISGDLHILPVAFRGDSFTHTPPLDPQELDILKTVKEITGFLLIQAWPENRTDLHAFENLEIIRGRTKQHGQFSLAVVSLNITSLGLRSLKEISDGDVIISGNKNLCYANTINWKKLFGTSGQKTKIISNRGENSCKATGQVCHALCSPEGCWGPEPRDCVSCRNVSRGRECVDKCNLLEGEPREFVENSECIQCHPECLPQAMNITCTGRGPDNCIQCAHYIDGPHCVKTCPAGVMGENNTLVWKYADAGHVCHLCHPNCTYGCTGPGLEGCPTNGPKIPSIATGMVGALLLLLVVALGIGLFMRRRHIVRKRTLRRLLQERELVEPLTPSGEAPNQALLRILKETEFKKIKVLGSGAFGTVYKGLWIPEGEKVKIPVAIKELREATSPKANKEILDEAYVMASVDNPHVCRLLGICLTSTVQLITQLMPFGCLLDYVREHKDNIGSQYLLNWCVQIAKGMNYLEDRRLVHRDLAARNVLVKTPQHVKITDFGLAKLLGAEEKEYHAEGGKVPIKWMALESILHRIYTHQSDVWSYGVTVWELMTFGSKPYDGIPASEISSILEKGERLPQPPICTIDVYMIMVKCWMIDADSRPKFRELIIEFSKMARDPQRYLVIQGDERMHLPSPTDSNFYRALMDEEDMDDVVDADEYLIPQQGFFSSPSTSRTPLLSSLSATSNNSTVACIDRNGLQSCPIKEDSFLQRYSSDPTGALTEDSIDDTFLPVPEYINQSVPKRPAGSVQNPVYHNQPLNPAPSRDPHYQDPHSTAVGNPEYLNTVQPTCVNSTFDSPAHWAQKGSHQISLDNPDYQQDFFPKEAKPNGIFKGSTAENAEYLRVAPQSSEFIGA
- assay-method-text: Substrate phosphorylation assay, EGFr
- Assay type: biochemical
- condition-description: ATP and peptide at Km, 30 min, room temperature
pIC50: −log10 of the molar value. Counter-ions that a name gives are not always drawn.
I would appreciate it if you labelled entries Y when pIC50 is 6 or higher, otherwise N.

- CCN(C)c1cc2c(Nc3ccc4c(cnn4Cc4ccccc4)c3)ncnc2cn1: Y
- Cc1nnc(-c2cc3c(Nc4ccc5c(cnn5Cc5ccccc5)c4)ncnc3cn2)o1 [Example 29, Hydrochloride]: Y
- CN(C)c1cc2c(Nc3ccc4c(cnn4Cc4cccnc4)c3)ncnc2cn1 [Example 13, Hydrochloride]: Y
- CN(C)c1cc2c(Nc3ccc4c(ccn4S(=O)(=O)c4ccccc4)c3)ncnc2cn1 [Example 18, Hydrochloride]: Y
- O=C(O)c1ccc(-c2cc3c(Nc4ccc5c(cnn5Cc5ccccc5)c4)ncnc3cn2)o1 [Example 35, Hydrochloride]: N

Ask: Is pIC50 for c1ccc(Cn2ncc3cc(Nc4ncnc5cnc(N6CCCCC6)cc45)ccc32)cc1 at or above 6?
Result: Y

Ask: Quick check, pIC50 >= 6? c1ccc(COc2cc3c(Nc4ccc5c(cnn5Cc5ccccc5)c4)ncnc3cn2)cc1 [Example 33, Hydrochloride]
Result: N

Ask: Assess whether reported pIC50 for c1ccc(Cn2ncc3cc(Nc4ncnc5cnc(-n6cncn6)cc45)ccc32)cc1 sits at 6 or higher.
Result: Y

Ask: Please indicate if the recorded pIC50 for CS(=O)(=O)CCNC(=O)c1ccc(-c2cc3c(Nc4ccc5c(cnn5Cc5ccccc5)c4)ncnc3cn2)o1 [Example 36, Hydrochloride] meets or exceeds 6.
Result: N

Ask: Is it the case that c1ccc(Cn2ncc3cc(Nc4ncnc5cnc(-n6nccn6)cc45)ccc32)cc1 has pIC50 reaching or exceeding 6?
Result: Y

---

Field: IC50. Provide a value for each of the molecules that follow.
- target-or-test-system: c-erbB-4 (baculovirus expressed recombinant intracellular domain) (Homo sapiens)
- Construct: baculovirus expressed, recombinant constructs of the intracellular domains of c-erbB-2 and c-erbB-4 that are constitutively active
- Sequence (Q15303 676-1308 limits assumed): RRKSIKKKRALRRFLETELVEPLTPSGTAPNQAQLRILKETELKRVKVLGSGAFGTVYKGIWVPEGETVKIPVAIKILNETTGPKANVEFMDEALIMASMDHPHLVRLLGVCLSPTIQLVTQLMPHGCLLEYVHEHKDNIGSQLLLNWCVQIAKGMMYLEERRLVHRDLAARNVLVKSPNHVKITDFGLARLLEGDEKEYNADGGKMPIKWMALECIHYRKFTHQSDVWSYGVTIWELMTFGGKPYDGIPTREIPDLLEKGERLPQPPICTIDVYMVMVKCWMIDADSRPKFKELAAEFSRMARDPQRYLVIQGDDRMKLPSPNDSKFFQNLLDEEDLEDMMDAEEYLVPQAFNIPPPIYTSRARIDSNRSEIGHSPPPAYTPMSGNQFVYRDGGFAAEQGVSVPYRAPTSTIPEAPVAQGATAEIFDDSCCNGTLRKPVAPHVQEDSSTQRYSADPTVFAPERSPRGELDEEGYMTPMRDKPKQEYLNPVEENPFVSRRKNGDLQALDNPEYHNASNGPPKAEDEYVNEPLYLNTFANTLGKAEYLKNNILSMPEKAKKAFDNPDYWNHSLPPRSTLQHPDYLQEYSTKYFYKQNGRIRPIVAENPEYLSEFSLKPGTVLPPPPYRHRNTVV
- assay-method-text: Substrate phosphorylation assay, c-erbB-4
- condition-description: ATP and peptide at Km, 30 min, room temperature
Structures can show the parent of a compound that is named as a salt.
Give bare numbers, in nM.

Use these answered entries as a reference point.
* CN(C)c1cc2c(Nc3ccc4nc(Cc5ccccc5)[nH]c4c3)ncnc2cn1 | 21
* Cc1nn(Cc2ccccc2)c2ccc(Nc3ncnc4cnc(N(C)C)cc34)cc12 | 1500
* CNc1cc2c(Nc3ccc4c(cnn4Cc4ccccc4)c3)ncnc2cn1 | 180

Give measured IC50 for every item shown.
1. CN(C)c1cc2c(Nc3ccc4c(cnn4Cc4ccccc4F)c3)ncnc2cn1 [Example 15, Hydrochloride]
2. CN(C)c1cc2c(Nc3ccc4c(cnn4Cc4ccc(O)cc4)c3)ncnc2cn1
3. c1ccc(Cn2ncc3cc(Nc4ncnc5cnccc45)ccc32)cc1

Result:
1: 4; 2: 1900; 3: 1300
